Listing of recorded inhibition by entry.
Biological target: Ephrin type-B receptor 3 (Homo sapiens);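 further: reported value is the mean percent inhibition of EPHB3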
Conditions: at 0.1 µM
Write the value in % as a bare number.

Could you please provide reported inhibition for "Fc1ccc(-c2nn3ccccc3c2-c2ccncc2)cc1" ? Thanks!
4.48

Next:
Could you please provide reported inhibition for "CNC(=O)c1cncc(/C=C/c2ccccc2Cl)c1" ? Thanks!
-1.27

Could you please provide reported inhibition for CC1=C(C(=O)Nc2cc(Cl)c3[nH]ncc3c2)C(c2ccc(C(F)(F)F)cc2)CC(=O)N1 (stereo not drawn) ? Thanks!
5.62

Could you please provide reported inhibition for "CNC(=O)c1cccc(C#Cc2cncnc2Nc2ccc(OCc3cccc(F)c3)c(Cl)c2)c1" ? Thanks!
0.65

Could you please provide reported inhibition for "Fc1ccc(-c2cc(-c3c[nH]nc3-c3ccccn3)ccn2)cc1" ? Thanks!
7.2

Could you please provide reported inhibition for "O=S(=O)(CCNCc1ccc(-c2ccc3ncnc(Nc4ccc(OCc5cccc(F)c5)c(Cl)c4)c3c2)o1)c1ccccc1" ? Thanks!
4.95

Could you please provide reported inhibition for "COc1ccc(CNC(=O)c2ccc(-c3cc(-c4nnc(C)o4)ccc3C)cc2)cc1" ? Thanks!
-0.7

Could you please provide reported inhibition for "CCc1nn2ncccc2c1-c1ccnc(NC2CC2)n1" ? Thanks!
2.18

Could you please provide reported inhibition for "c1ccc(-c2nc3n(c2-c2ccc4c(c2)OCO4)CCC3)nc1" ? Thanks!
4.03

====

Listing of recorded inhibition by entry.
Target: Dual specificity tyrosine-phosphorylation-regulated kinase 1A (Homo sapiens) (UniProt Q13627)
Details: at 0.1 µM
Description: GSK_PKIS: DYRK1A mean inhibition at 0.1 uM [Nanosyn]
Write the value in % as a bare number.

Some solved entries appear below for comparison.
Could you please provide reported inhibition for "COc1cccc(-n2ncc3c(N/N=C/c4ccc(F)cc4)ncnc32)c1" ? Thanks!
6.93

Could you please provide reported inhibition for "CS(=O)(=O)CCNCc1ccc(-c2ccc3ncnc(Nc4ccc(OCc5ccccc5)c(C(F)(F)F)c4)c3c2)o1" ? Thanks!
2.36

Could you please provide reported inhibition for "COc1ccc(-c2cc3c(N)ncnc3o2)cc1" ? Thanks!
4.26

Next:
Could you please provide reported inhibition for "CCNC(=O)O[C@H]1CN[C@H](C#Cc2cc3ncnc(Nc4ccc(OCc5cccc(F)c5)c(Cl)c4)c3s2)C1" ? Thanks!
1.66

====

Molecular target: Mitogen-activated protein kinase 9 (Homo sapiens) (UniProt P45984);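 further: values are mean inhibition of JNK2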
Sequence (P45984 whole entry, looked up): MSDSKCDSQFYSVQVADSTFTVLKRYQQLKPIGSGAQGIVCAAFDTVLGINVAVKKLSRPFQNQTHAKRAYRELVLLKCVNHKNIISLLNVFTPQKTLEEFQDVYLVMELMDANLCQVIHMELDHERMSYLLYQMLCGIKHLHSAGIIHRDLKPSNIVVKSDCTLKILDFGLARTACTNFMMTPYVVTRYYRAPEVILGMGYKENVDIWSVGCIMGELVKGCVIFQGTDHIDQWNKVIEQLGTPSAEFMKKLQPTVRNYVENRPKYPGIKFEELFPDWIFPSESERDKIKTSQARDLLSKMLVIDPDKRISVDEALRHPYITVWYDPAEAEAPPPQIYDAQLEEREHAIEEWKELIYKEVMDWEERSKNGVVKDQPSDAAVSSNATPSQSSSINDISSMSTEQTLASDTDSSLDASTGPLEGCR
Conditions: at 0.1 µM
reported_metric: inhibition (%)
Write the value in % as a bare number.

Some solved entries appear below for comparison.
Could you please provide reported inhibition for "Cc1ccc2c(-c3ccnc(Nc4ccccc4)n3)c(-c3ccc(F)cc3)nn2n1" ? Thanks!
44

Could you please provide reported inhibition for "COc1ccc(-c2oc3ncnc(N)c3c2-c2ccc(NC(=O)Nc3cc(C(F)(F)F)ccc3F)cc2)cc1" ? Thanks!
7.38

Could you please provide reported inhibition for "[O-][S+]1CCN(Cc2ccc(-c3ccc4ncnc(Nc5ccc(OCc6cccc(F)c6)c(Cl)c5)c4c3)o2)CC1" ? Thanks!
3.35

Could you please provide reported inhibition for "O=S(=O)(CCNCc1ccc(-c2ccc3ncnc(Nc4ccc(OCc5cccc(F)c5)c(Cl)c4)c3c2)o1)c1ccccc1" ? Thanks!
5.87

Could you please provide reported inhibition for "CCn1c(-c2nonc2N)nc2ccccc21" ? Thanks!
3.53

Could you now consider this next compound?
Could you please provide reported inhibition for "CCOc1ccc2c(-c3ccnc(Nc4cccc(C(F)(F)F)c4)n3)cnn2n1" ? Thanks!
1.84

====

Listing of recorded inhibition by entry.
Biological target: Sphingosine kinase 1 (Homo sapiens);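 further: mean SPHK1 inhibition value reported from the GSK PKIS kinase panel screen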
Conditions: at 1 µM
Write the value in % as a bare number.

Some solved entries appear below for comparison.
Could you please provide reported inhibition for "CS(=O)(=O)CCNCc1coc(-c2ccc3ncnc(Nc4ccc(OCc5ccccc5)cc4)c3c2)c1" ? Thanks!
-1.49

Could you please provide reported inhibition for "Cc1ccc2c(-c3ccnc(Nc4ccccc4)n3)c(-c3ccc(F)cc3)nn2n1" ? Thanks!
1.05

Could you please provide reported inhibition for "CCn1c(-c2nonc2N)nc2c(C#CC(C)(C)O)ncc(OC3CCNCC3)c21" ? Thanks!
4.1

Next:
Could you please provide reported inhibition for "COc1cc(/C=N/Nc2ncnc3[nH]ncc23)ccc1O" ? Thanks!
-2.47

Could you please provide reported inhibition for "Nc1ncc(-c2cccc(S(N)(=O)=O)c2)c2scc(-c3ccc(F)c(Cl)c3)c12" ? Thanks!
-4.57

Could you please provide reported inhibition for "CCN1CCC(CC(=O)Nc2n[nH]c3nnc(-c4cccc(F)c4F)cc23)CC1" ? Thanks!
1.84

Could you please provide reported inhibition for "COc1ccc(-c2cc3c(N)ncnc3o2)cc1" ? Thanks!
0.27

====

Listing of recorded inhibition by entry.
Tested on: Epidermal growth factor receptor (Homo sapiens), P00533 [T790M]
Sequence (P00533 whole entry T790M): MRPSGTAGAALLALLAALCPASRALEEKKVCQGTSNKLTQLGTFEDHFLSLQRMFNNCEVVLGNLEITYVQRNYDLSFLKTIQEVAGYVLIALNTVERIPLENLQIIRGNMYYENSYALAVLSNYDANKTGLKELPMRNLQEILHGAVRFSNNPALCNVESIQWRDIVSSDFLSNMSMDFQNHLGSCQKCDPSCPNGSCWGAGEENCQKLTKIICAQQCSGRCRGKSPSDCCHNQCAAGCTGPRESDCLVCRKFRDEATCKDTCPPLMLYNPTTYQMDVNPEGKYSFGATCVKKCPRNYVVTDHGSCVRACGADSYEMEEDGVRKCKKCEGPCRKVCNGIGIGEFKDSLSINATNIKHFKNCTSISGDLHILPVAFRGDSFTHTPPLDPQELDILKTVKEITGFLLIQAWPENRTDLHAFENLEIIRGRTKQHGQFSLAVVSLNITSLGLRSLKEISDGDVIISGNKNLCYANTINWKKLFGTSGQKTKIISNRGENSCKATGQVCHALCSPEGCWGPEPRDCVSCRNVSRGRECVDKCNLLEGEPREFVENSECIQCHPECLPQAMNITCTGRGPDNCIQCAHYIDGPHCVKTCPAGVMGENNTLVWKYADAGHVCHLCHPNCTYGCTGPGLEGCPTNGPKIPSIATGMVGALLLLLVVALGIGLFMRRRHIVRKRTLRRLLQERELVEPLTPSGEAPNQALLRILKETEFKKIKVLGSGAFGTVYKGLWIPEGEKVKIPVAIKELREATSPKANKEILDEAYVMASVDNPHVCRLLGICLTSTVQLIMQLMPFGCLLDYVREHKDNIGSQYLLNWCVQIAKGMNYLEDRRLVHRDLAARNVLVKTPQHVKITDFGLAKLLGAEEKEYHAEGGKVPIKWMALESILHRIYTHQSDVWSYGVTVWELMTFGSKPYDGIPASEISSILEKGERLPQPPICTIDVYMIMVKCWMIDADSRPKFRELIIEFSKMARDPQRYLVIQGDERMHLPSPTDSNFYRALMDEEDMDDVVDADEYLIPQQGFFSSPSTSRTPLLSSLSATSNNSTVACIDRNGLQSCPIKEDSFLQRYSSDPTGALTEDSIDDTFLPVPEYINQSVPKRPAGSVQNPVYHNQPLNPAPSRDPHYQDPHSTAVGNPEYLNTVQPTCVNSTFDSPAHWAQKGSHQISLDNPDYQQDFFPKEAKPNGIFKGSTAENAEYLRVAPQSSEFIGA
Conditions: at 0.1 µM
Write the value in % as a bare number.

Some solved entries appear below for comparison.
Could you please provide reported inhibition for "c1ccc(-c2nc3n(c2-c2ccc4c(c2)OCO4)CCC3)nc1" ? Thanks!
0.12

Could you please provide reported inhibition for "COC(=O)Nc1nc2ccc(S(=O)(=O)c3ccc(NC(=O)Nc4cc(C(F)(F)F)ccc4F)cc3)cc2[nH]1" ? Thanks!
2.47

Next:
Could you please provide reported inhibition for "COc1cc2c(cc1Nc1nc(Nc3ccsc3C(N)=O)c3cc[nH]c3n1)N(C(=O)CN(C)C)CCC2(C)C" ? Thanks!
26.6

Could you please provide reported inhibition for "NS(=O)(=O)c1ccc(N/N=C2\C(=O)Nc3ccc4ncccc4c32)cc1" ? Thanks!
1.15

Could you please provide reported inhibition for "CCCN1CCC(c2ccc(Nc3nc(Nc4cc(F)ccc4C(N)=O)c4cc[nH]c4n3)c(OC)c2)CC1" ? Thanks!
30.4

====

System: Epidermal growth factor receptor (Homo sapiens), P00533 [L858R,T790M]
Sequence (P00533 whole entry T790M/L858R, looked up): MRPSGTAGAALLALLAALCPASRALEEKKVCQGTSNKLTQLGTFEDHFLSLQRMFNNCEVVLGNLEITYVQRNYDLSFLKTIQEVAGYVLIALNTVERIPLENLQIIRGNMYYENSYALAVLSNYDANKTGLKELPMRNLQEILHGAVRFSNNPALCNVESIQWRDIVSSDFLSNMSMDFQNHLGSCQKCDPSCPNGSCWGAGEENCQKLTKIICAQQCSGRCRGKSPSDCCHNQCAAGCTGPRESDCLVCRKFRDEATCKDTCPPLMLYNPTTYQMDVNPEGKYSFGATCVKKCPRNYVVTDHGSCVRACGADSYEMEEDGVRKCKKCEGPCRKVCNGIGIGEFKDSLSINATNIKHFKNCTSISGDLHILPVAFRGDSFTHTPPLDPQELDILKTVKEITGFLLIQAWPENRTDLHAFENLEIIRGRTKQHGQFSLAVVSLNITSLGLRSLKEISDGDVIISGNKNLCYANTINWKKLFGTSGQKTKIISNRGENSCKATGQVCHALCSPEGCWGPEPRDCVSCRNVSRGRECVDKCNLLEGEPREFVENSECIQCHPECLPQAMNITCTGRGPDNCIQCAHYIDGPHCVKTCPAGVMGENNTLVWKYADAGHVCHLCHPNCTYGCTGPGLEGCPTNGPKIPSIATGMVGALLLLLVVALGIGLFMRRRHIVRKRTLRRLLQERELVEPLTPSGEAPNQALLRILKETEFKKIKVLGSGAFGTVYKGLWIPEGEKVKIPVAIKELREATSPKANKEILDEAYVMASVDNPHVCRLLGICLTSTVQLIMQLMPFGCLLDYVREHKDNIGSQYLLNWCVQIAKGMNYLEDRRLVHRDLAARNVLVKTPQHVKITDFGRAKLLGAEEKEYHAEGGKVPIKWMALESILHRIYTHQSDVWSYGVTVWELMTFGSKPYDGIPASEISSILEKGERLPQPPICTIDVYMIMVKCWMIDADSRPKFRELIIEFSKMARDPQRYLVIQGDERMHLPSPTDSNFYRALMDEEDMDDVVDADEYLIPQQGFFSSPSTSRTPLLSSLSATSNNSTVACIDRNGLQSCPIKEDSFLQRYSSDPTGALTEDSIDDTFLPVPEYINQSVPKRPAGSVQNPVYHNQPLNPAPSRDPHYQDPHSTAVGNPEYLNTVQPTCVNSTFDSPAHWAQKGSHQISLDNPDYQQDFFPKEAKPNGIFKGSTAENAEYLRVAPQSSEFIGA
Conditions: at 1 µM
reported_metric: inhibition

Could you please provide reported inhibition for "COc1ccc2c(-c3ccnc(Nc4cccc(OC(F)(F)F)c4)n3)cnn2n1" ? Thanks!
2.88%

Next:
Could you please provide reported inhibition for "COc1ccc(-c2nn3ncccc3c2-c2ccnc(Nc3ccc4c(c3)OCCO4)n2)cc1" ? Thanks!
17.8%

Could you please provide reported inhibition for "Fc1cccc(COc2ccc(Nc3ncnc4sc(-c5ccco5)cc34)cc2Cl)c1" ? Thanks!
3.48%

Could you please provide reported inhibition for "COc1cc2c(cc1Nc1nc(Nc3ccsc3C(N)=O)c3cc[nH]c3n1)N(C(=O)CN(C)C)CCC2(C)C" ? Thanks!
84.7%

Could you please provide reported inhibition for "NS(=O)(=O)c1ccc(Nc2ncc(-c3ccccc3)o2)cc1" ? Thanks!
0.87%

====

Molecular target: RAC-beta serine/threonine-protein kinase (Homo sapiens)
Details: at 1 µM
Description: GSK_PKIS: AKT2 mean inhibition at 1 uM [Nanosyn]
# if value of inhibition reaches 2%, tag true; if it stays below, tag false

Hi team, for "O=C(O[C@H]1CN[C@H](C#Cc2cc3ncnc(Nc4ccc(Cc5ccccc5)cc4)c3s2)C1)N1CCOCC1" , is the recorded inhibition at or above 2%?
false

Hi team, for "Nc1ncc(-c2cccc(S(N)(=O)=O)c2)c2scc(-c3ccc(F)c(Cl)c3)c12" , is the recorded inhibition at or above 2%?
true

Hi team, for "N#Cc1c(NC(=O)c2ccc(F)cc2)sc2c1CCCC2" , is the recorded inhibition at or above 2%?
false

Hi team, for "COc1ccc2c(-c3ccnc(Nc4cccc(OC(F)(F)F)c4)n3)cnn2n1" , is the recorded inhibition at or above 2%?
false

Hi team, for "Fc1cccc(COc2ccc(Nc3ncnc4sc(-c5ccco5)cc34)cc2Cl)c1" , is the recorded inhibition at or above 2%?
false

Hi team, for "COc1ccc2[nH]c3c4[nH]c5ccc(OC)cc5c4c4c(c3c2c1)C(=O)NC4=O" , is the recorded inhibition at or above 2%?
true

Next:
Hi team, for "COc1ccc(-c2oc3ncnc(N)c3c2-c2ccc(NC(=O)Nc3cc(C(F)(F)F)ccc3F)cc2)cc1" , is the recorded inhibition at or above 2%?
true

Hi team, for "CCN1CCC(CC(=O)Nc2n[nH]c3nnc(-c4cccc(F)c4F)cc23)CC1" , is the recorded inhibition at or above 2%?
false

Hi team, for "COC(=O)Nc1nc2ccc(Oc3ccc(NC(=O)Nc4cccc(Cl)c4)cc3)cc2[nH]1" , is the recorded inhibition at or above 2%?
false

Hi team, for "CCn1c(-c2nonc2N)nc2cnc(Oc3cccc(NC(=O)c4ccc(N(C)C)cc4)c3)cc21" , is the recorded inhibition at or above 2%?
true

Hi team, for "COc1cc(N2CCN(C(C)C)CC2)ccc1Nc1nc(Nc2ccc(F)cc2C(N)=O)c2cc[nH]c2n1" , is the recorded inhibition at or above 2%?
true

====

Target: Platelet-derived growth factor receptor beta (Homo sapiens) (UniProt P09619);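 further: each value is a mean percent inhibition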
Sequence (P09619 whole entry): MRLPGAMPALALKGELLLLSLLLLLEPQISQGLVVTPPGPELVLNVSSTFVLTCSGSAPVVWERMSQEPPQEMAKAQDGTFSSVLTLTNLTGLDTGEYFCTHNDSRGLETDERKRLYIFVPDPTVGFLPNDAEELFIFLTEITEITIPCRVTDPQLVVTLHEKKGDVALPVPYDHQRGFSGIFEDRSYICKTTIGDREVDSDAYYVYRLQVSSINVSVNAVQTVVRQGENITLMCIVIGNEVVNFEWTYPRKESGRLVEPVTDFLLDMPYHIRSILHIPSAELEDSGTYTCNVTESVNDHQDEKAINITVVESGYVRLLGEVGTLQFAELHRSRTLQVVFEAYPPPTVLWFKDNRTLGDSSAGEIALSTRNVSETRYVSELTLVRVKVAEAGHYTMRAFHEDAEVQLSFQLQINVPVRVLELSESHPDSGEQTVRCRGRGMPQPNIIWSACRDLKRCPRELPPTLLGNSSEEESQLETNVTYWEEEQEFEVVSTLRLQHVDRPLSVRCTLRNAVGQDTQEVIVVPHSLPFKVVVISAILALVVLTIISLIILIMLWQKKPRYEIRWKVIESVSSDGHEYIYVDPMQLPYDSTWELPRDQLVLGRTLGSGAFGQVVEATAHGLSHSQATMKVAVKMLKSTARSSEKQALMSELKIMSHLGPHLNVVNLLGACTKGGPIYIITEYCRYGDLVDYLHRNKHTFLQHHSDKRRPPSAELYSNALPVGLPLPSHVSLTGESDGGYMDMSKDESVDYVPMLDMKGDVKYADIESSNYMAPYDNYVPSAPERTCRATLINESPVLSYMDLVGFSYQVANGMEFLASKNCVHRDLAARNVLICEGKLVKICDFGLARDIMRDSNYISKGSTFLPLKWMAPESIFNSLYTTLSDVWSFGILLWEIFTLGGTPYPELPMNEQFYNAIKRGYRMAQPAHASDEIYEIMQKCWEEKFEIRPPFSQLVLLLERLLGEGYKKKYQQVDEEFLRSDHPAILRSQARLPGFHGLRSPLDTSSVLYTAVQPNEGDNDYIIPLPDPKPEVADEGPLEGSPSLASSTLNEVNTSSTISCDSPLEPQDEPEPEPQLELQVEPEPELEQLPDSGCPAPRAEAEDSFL
Settings: at 1 µM
reported_metric: inhibition
For clarity, give the value followed by its unit.

Could you please provide reported inhibition for "Clc1ccc(-c2nn3ncccc3c2-c2ccnc(Nc3ccccc3)n2)cc1" ? Thanks!
39.4%

Could you please provide reported inhibition for "Nc1ncc(-c2cccc(S(N)(=O)=O)c2)c2scc(-c3ccc(F)c(Cl)c3)c12" ? Thanks!
53.4%

Could you please provide reported inhibition for "Nc1nc(-c2ccc(F)cc2)c(-c2ccc3ncccc3n2)s1" ? Thanks!
42.9%

Next:
Could you please provide reported inhibition for "c1ccc(-c2nc3n(c2-c2ccc4c(c2)OCO4)CCC3)nc1" ? Thanks!
4.62%

Could you please provide reported inhibition for "CCc1nn2ncccc2c1-c1ccnc(NC2CC2)n1" ? Thanks!
13.8%

Could you please provide reported inhibition for "Cc1cccc(Nc2ncc(-c3ccccc3)o2)c1" ? Thanks!
37.2%
